Target: PRMT5/MEP50 complex (Homo sapiens)
Sequence (O14744 whole entry, the tested form may be a part): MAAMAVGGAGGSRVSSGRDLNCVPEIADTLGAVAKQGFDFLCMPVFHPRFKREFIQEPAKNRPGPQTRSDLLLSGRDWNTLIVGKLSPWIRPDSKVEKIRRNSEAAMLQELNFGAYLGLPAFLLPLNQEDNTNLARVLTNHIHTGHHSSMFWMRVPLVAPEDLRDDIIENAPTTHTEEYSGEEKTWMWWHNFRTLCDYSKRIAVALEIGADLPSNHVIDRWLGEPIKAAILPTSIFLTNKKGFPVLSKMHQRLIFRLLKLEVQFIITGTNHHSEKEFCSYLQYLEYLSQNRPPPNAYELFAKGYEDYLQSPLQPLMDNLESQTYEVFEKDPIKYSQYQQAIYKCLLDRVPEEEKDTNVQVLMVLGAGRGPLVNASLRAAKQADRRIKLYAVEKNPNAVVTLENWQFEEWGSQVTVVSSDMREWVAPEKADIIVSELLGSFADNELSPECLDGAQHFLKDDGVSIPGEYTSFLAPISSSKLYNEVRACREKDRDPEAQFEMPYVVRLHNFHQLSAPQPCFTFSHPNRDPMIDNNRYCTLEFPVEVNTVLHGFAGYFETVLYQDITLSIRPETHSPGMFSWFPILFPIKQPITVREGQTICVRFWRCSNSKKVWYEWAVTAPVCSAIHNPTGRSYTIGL
Sequence (Q9BQA1 whole entry, further chain, the tested form may be a part): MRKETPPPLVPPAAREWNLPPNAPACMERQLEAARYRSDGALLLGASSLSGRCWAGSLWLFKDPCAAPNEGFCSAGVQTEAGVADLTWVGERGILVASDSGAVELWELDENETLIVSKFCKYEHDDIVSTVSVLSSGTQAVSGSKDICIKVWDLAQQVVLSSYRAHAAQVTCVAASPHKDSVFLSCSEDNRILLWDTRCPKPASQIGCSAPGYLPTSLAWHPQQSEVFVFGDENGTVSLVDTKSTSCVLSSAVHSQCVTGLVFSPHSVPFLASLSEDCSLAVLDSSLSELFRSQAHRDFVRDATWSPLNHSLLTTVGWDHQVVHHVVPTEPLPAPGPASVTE
Assay: Inhibition of recombinant human fetal brain FLAG-tagged PRMT5/full length human testis 6His-tagged MEP50 expressed in baculovirus infected insect Sf9 cells using human histone H4 (1 to 15 residues) as substrate preincubated for 30 mins followed by [3H]-SAM addition
Observable: IC50

Requested field: IC50. Item: OC(COc1cccc(-c2cccnc2)c1)CN1CCc2ccccc2C1 (configuration not stated)
1 to 10 µM

Requested field: IC50. Item: Cn1nccc1-c1cccc(C(=O)NCC(O)CN2CCc3ccccc3C2)c1 (configuration not stated)
< 0.1 µM

Requested field: IC50. Item: COc1ccc(-c2cccc(OCC(O)CN3CCc4ccccc4C3)c2)c(C)c1 (configuration not stated)
0.101 to 1 µM

Requested field: IC50. Item: O=C(COc1ccccc1S(=O)(=O)N1CCC(O)C1)NCC(O)CN1CCc2ccccc2C1 (configuration not stated)
< 0.1 µM

Requested field: IC50. Item: Cn1cnc2ccc(-c3cccc(OCC(O)CN4CCc5ccccc5C4CC(N)=O)c3)cc21 (configuration not stated)
> 40 µM

Requested field: IC50. Item: Cn1ccc2ccc(-c3ccnc(NCC(O)CN4CCc5ccccc5C4)c3)cc21 (configuration not stated)
< 0.1 µM

Requested field: IC50. Item: CC(=O)N(CC(O)CN1CCc2ccccc2C1)c1cccc(-c2ccc3ncn(C)c3c2)c1 (configuration not stated)
< 0.1 µM

Requested field: IC50. Item: O=C(NC[C@@H](O)CN1CCc2ccccc2C1)Nc1ccccc1
1 to 10 µM

Requested field: IC50. Item: OC(COc1cccc(CNC2CCNCC2)c1)CN1CCc2ccccc2C1 (configuration not stated)
1 to 10 µM

Requested field: IC50. Item: CC1CN(CC(O)COc2cccc(-c3ccc4ncn(C)c4c3)c2)Cc2ccccc21 (configuration not stated)
1 to 10 µM

Requested field: IC50. Item: OC(COc1ccc(OCC(O)CN2CCc3ccccc3C2)cc1)CN1CCc2ccccc2C1 (configuration not stated)
0.101 to 1 µM

Requested field: IC50. Item: OC(COCC1COc2ccccc2O1)CN1CCc2ccccc2C1 (configuration not stated)
0.101 to 40 µM

Requested field: IC50. Item: O=C(NCC(O)CN1CCc2ccccc2C1)c1cccc(CN2CCOCC2)c1 (configuration not stated)
0.101 to 1 µM

Requested field: IC50. Item: CN1CCCC(c2ccccc2OCC(=O)NCC(O)CN2CCc3ccccc3C2)C1 (configuration not stated)
< 0.1 µM

Requested field: IC50. Item: CC(=O)N1CCN(CC(O)CN2CCc3ccccc3C2)C(=O)C1 (configuration not stated)
1 to 10 µM

Requested field: IC50. Item: O=C(Cn1ccc2cnc(-c3cccc(OCC(O)CN4CCc5ccccc5C4)c3)nc21)N1CCOCC1 (configuration not stated)
0.101 to 1 µM

Requested field: IC50. Item: OC(COCC1CCCCO1)CN1CCc2ccccc2C1 (configuration not stated)
> 40 µM

Requested field: IC50. Item: Cn1ccc2cnc(-c3ccnc(NCC(O)CN4CCc5ccccc5C4)c3)nc21 (configuration not stated)
< 0.1 µM

Requested field: IC50. Item: Cc1ccc2c(c1)CN(CC(O)COc1cccc(-c3ccc4ncn(C)c4c3)c1)CC2 (configuration not stated)
1 to 10 µM

Requested field: IC50. Item: Cc1cccc2c1CN(CC(O)COc1cccc(-c3ccc4ncn(C)c4c3)c1)CC2 (configuration not stated)
1 to 10 µM

Requested field: IC50. Item: CC(C)n1ccc(-c2ccc(OCC(O)CN3CCc4ccccc4C3)cc2)n1 (configuration not stated)
1 to 10 µM

Requested field: IC50. Item: Cn1ncc2ccc(-c3cc(COCC(O)CN4CCc5ccccc5C4)on3)cc21 (configuration not stated)
0.101 to 1 µM
